Provenance of the data: ChEMBL document CHEMBL3352669

# tested on: Microtubule-associated protein tau (Homo sapiens)
# test summary: Inhibition of aggregation of tau protein (unknown origin) expressed in Escherichia coli BL21 (DE3) assessed as amyloid fibril formation at 10 uM after 24 hrs by thioflavin S fluorescence method
property measured: inhibition
Please answer in the form of a number followed by its unit of measurement.

q: Given the molecule O=C(NCCCCCCCCNc1c2c(nc3cc(Cl)ccc13)CCCC2)c1ccc2nc(-c3ccc(Cl)cc3)c3c(c2c1)OCCC3 , write its reported inhibition.
a: 37.8%

q: Given the molecule O=C(NCCCNc1c2c(nc3cc(Cl)ccc13)CCCC2)c1ccc2nc(-c3ccc(Cl)cc3)c3c(c2c1)NCCC3 , write its reported inhibition.
a: 40.7%

q: Given the molecule O=C(NCCCCNc1c2c(nc3cc(Cl)ccc13)CCCC2)c1ccc2nc(-c3ccc(Cl)cc3)c3c(c2c1)NCCC3 , write its reported inhibition.
a: 58.9%

q: Given the molecule CCOC(=O)c1ccc2nc(-c3ccc(Cl)cc3)c3c(c2c1)OCCC3 , write its reported inhibition.
a: 27.9%

q: Given the molecule Nc1c2c(nc3cc(Cl)ccc13)CCCC2 , write its reported inhibition.
a: 1.4%

q: Given the molecule O=C(NCCCCCNc1c2c(nc3cc(Cl)ccc13)CCCC2)c1ccc2nc(-c3ccc(Cl)cc3)c3c(c2c1)NCCC3 , write its reported inhibition.
a: 57.7%

q: Given the molecule O=C(NCCCCCCCCNc1c2c(nc3cc(Cl)ccc13)CCCC2)c1ccc2nc(-c3ccc(Cl)cc3)c3c(c2c1)NCCC3 , write its reported inhibition.
a: 68.7%

----------
Assign IC50 to each entry below.
# tested on: Acetylcholinesterase (Homo sapiens, UniProt P22303)
# Sequence (P22303 whole entry): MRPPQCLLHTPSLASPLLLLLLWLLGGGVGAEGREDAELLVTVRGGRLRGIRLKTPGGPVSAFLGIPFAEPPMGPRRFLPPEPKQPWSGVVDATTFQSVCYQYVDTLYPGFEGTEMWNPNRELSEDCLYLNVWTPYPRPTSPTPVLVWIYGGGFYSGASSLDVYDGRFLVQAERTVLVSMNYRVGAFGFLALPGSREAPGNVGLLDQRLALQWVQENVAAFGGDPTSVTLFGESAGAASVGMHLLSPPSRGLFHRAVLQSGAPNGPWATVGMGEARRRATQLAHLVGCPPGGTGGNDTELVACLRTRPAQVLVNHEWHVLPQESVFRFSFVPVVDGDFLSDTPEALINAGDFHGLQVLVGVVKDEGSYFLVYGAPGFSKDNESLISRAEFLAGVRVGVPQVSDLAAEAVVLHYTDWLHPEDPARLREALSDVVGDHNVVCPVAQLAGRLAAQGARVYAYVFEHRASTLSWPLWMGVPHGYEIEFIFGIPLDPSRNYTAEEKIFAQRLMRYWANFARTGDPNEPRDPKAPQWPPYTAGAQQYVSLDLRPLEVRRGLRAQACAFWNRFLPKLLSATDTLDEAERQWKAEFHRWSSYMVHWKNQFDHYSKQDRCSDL
# test summary: Inhibition of human recombinant AChE using acetylthiocholine iodide as substrate by spectrophotometric analysis
# conditions: read-out: IC50
The figure you give is taken to be in nM; do not add the unit.

q: Given the molecule O=C(NCCCNc1c2c(nc3cc(Cl)ccc13)CCCC2)c1ccc2nc(-c3ccc(Cl)cc3)c3c(c2c1)NCCC3 , write its reported IC50.
a: 0.006

q: Given the molecule O=C(NCCCCCCCCNc1c2c(nc3cc(Cl)ccc13)CCCC2)c1ccc2nc(-c3ccc(Cl)cc3)c3c(c2c1)OCCC3 , write its reported IC50.
a: 19.3

q: Given the molecule O=C(NCCCCCNc1c2c(nc3cc(Cl)ccc13)CCCC2)c1ccc2nc(-c3ccc(Cl)cc3)c3c(c2c1)NCCC3 , write its reported IC50.
a: 14.2

q: Given the molecule O=C(NCCCCNc1c2c(nc3cc(Cl)ccc13)CCCC2)c1ccc2nc(-c3ccc(Cl)cc3)c3c(c2c1)NCCC3 , write its reported IC50.
a: 14.2

----------
# tested on: UniProt P05067
# Sequence (P05067 whole entry): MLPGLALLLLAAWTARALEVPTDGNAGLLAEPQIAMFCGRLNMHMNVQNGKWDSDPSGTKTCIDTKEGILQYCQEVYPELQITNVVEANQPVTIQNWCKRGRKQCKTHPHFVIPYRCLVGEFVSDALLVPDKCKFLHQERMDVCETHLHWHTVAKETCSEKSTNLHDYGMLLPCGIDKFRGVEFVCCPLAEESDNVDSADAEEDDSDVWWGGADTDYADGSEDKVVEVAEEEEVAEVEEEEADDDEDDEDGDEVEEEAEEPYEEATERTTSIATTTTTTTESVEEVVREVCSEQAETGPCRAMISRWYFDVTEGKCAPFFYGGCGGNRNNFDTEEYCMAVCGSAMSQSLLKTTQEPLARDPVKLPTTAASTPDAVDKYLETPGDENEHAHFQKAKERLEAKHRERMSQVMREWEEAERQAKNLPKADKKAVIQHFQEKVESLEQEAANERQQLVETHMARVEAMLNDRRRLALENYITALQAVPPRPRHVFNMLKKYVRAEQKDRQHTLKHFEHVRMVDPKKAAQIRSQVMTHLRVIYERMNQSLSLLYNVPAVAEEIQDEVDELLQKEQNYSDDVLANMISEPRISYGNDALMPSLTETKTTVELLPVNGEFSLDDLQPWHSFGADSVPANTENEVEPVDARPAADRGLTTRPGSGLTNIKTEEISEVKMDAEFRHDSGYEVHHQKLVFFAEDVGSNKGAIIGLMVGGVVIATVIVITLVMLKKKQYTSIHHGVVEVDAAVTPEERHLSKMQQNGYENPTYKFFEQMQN
# test summary: Inhibition of aggregation of amyloid beta-42 (unknown origin) expressed in Escherichia coli BL21 (DE3) assessed as amyloid fibril formation at 10 uM after 24 hrs by thioflavin S fluorescence method
Criterion: inhibition meeting or surpassing 50%. Met: T. Not met: F.

q: Entry O=C(NCCCNc1c2c(nc3cc(Cl)ccc13)CCCC2)c1ccc2nc(-c3ccc(Cl)cc3)c3c(c2c1)NCCC3 : is its inhibition no less than 50%?
a: T

q: Entry O=C(NCCCCCNc1c2c(nc3cc(Cl)ccc13)CCCC2)c1ccc2nc(-c3ccc(Cl)cc3)c3c(c2c1)NCCC3 : is its inhibition no less than 50%?
a: T

q: Entry O=C(NCCCCCCCCNc1c2c(nc3cc(Cl)ccc13)CCCC2)c1ccc2nc(-c3ccc(Cl)cc3)c3c(c2c1)NCCC3 : is its inhibition no less than 50%?
a: T

q: Entry O=C(NCCCCNc1c2c(nc3cc(Cl)ccc13)CCCC2)c1ccc2nc(-c3ccc(Cl)cc3)c3c(c2c1)NCCC3 : is its inhibition no less than 50%?
a: T

q: Entry O=C(NCCCCCCCCNc1c2c(nc3cc(Cl)ccc13)CCCC2)c1ccc2nc(-c3ccc(Cl)cc3)c3c(c2c1)OCCC3 : is its inhibition no less than 50%?
a: T

q: Entry Nc1c2c(nc3cc(Cl)ccc13)CCCC2 : is its inhibition no less than 50%?
a: F

q: Entry CCOC(=O)c1ccc2nc(-c3ccc(Cl)cc3)c3c(c2c1)OCCC3 : is its inhibition no less than 50%?
a: F

----------
# tested on: Cholinesterase (Homo sapiens)
# Sequence (P06276 whole entry): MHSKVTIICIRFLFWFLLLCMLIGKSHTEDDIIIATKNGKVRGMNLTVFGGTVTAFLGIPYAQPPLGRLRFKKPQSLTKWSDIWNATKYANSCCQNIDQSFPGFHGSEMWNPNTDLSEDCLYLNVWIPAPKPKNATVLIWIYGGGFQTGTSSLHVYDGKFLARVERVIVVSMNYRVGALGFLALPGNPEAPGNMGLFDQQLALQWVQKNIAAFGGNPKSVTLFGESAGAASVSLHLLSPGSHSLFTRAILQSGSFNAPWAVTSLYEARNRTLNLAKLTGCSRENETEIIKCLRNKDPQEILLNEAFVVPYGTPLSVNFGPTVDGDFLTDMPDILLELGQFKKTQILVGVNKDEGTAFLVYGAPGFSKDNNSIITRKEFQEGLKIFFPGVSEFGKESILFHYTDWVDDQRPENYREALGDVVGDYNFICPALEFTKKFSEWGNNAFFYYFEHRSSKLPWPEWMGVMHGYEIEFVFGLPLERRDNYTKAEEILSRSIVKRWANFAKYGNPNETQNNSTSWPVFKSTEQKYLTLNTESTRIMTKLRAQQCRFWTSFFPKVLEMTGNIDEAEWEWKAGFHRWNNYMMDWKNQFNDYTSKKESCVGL
# test summary: Inhibition of human recombinant BChE using butyrylthiocholine iodide as substrate by spectrophotometric analysis
# conditions: read-out: IC50
property measured: pIC50
Interpret pIC50 as the negative base-10 log of the concentration measured in mol/L.

q: Given the compound O=C(NCCCCCNc1c2c(nc3cc(Cl)ccc13)CCCC2)c1ccc2nc(-c3ccc(Cl)cc3)c3c(c2c1)NCCC3 , write its reported pIC50.
a: 6.47

q: Given the compound O=C(NCCCCCCCCNc1c2c(nc3cc(Cl)ccc13)CCCC2)c1ccc2nc(-c3ccc(Cl)cc3)c3c(c2c1)OCCC3 , write its reported pIC50.
a: 6.65

q: Given the compound O=C(NCCCNc1c2c(nc3cc(Cl)ccc13)CCCC2)c1ccc2nc(-c3ccc(Cl)cc3)c3c(c2c1)NCCC3 , write its reported pIC50.
a: 6.92

q: Given the compound O=C(NCCCCNc1c2c(nc3cc(Cl)ccc13)CCCC2)c1ccc2nc(-c3ccc(Cl)cc3)c3c(c2c1)NCCC3 , write its reported pIC50.
a: 6.69
